Target: His-CHK1 (Homo sapiens, UniProt O14757)
Construct: fused on or other part: His tag
Sequence (O14757 1-265 limits assumed): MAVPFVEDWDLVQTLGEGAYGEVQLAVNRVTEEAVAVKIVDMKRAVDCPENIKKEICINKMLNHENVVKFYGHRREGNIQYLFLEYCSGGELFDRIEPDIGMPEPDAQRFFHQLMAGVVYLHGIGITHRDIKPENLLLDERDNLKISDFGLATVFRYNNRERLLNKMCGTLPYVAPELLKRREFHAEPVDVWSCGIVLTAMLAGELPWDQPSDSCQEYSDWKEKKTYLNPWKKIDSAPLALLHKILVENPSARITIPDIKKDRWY
Assay: CHK1 SPA Assay
Format: biochemical
measure.name: pIC50
Please report pIC50 as the negative decimal logarithm of the molar concentration, giving only the number.

Query: // fetch pIC50 for Cc1cc(Nc2cc(C3CCCNC3)nc3c(-c4cnn(C)c4)cnn23)sn1 (centres unmarked) ; system: His-CHK1 (Homo sapiens, UniProt O14757)
Reply: 8.15

Switching to the query record.
Query: // fetch pIC50 for Cn1cc(-c2cnn3c(N)c(Br)c(CC4CCCNC4)nc23)cn1 (centres unmarked) ; system: His-CHK1 (Homo sapiens, UniProt O14757)
Reply: 8.05

FYI, the data here is from patent US8211854B2.
